# Tgt: HLA-A*03:01
# Assay protocol: IEDB peptide-MHC binding, purified MHC/competitive/radioactivity; filed as Kd, often an IC50 or EC50 that approximates it; bounds were set here for any values at or beyond the usual limits of such assays
# Measurement context: source organism: Homo sapiens
Reported metric: log10 of Kd (log10 of the value in nM)

ordered_residues=LFRAVITKK tgt=HLA-A*03:01 observed_value=3.00
ordered_residues=ALAETSYVK tgt=HLA-A*03:01 observed_value=1.55
ordered_residues=FLIIVLVMIA tgt=HLA-A*03:01 observed_value=3.07
ordered_residues=RVRFFFPSLR tgt=HLA-A*03:01 observed_value=1.41
ordered_residues=ADLVGFLLLK tgt=HLA-A*03:01 observed_value=1.50
ordered_residues=MSLEQRSLH tgt=HLA-A*03:01 observed_value=3.55
ordered_residues=RALAETSYVK tgt=HLA-A*03:01 observed_value=1.79
ordered_residues=MLESVIKNYK tgt=HLA-A*03:01 observed_value=1.90
ordered_residues=SVMEVYDGR tgt=HLA-A*03:01 observed_value=3.07
ordered_residues=LVGFLLLKY tgt=HLA-A*03:01 observed_value=2.29
ordered_residues=VGFLLLKYR tgt=HLA-A*03:01 observed_value=3.40
ordered_residues=YVKVLEYVIK tgt=HLA-A*03:01 observed_value=3.58
ordered_residues=LVGFLLLKYR tgt=HLA-A*03:01 observed_value=3.51
ordered_residues=DLVGFLLLKY tgt=HLA-A*03:01 observed_value=3.20
ordered_residues=SLFRAVITKK tgt=HLA-A*03:01 observed_value=0.96

====

# Tgt: HLA-A*03:01
# Assay protocol: IEDB peptide-MHC binding, purified MHC/competitive/radioactivity; bounds were set here for any values at or beyond the usual limits of such assays
# Measurement context: source organism: Homo sapiens
pIC50: −log10 of the molar value.
Form field: pIC50 (one value per entry).
Reported metric: pIC50

ordered_residues=LLGDNQIMP observed_value=6.26
ordered_residues=TTINFTRQR observed_value=6.16
ordered_residues=HSAYGEPRK observed_value=6.10
ordered_residues=SLEQRSLHCK observed_value=6.13
ordered_residues=YVIKVSARVR observed_value=6.24

====

Form field: Kd (one value per entry).
# Tgt: HLA-A*01:01
# Assay protocol: IEDB peptide-MHC binding, purified MHC/competitive/radioactivity; filed as Kd, often an IC50 or EC50 that approximates it; bounds were set here for any values at or beyond the usual limits of such assays
# Measurement context: source organism: Homo sapiens
Reported metric: Kd (µM)

ordered_residues=MLESVIKNY tgt=HLA-A*01:01 reported_metric=Kd observed_value=2.27
ordered_residues=LTQDLVQEKY tgt=HLA-A*01:01 reported_metric=Kd observed_value=0.0208
ordered_residues=ETSYVKVLEY tgt=HLA-A*01:01 reported_metric=Kd observed_value=0.0446

====

Form field: pKd (one value per entry).
# Tgt: HLA-A*02:01
# Assay protocol: IEDB peptide-MHC binding, purified MHC/competitive/radioactivity; filed as Kd, often an IC50 or EC50 that approximates it; bounds were set here for any values at or beyond the usual limits of such assays
# Measurement context: source organism: Homo sapiens
pKd: −log10 of the molar value.
Reported metric: pKd

ordered_residues=GLVCVQAAT observed_value=5.66
ordered_residues=LVLGTLEEV observed_value=6.81
ordered_residues=VADLVGFLL observed_value=5.60
ordered_residues=SLQLVFGIDV observed_value=5.60
ordered_residues=KTGFLIIVLV observed_value=5.38
ordered_residues=KVADLVGFLL observed_value=7.05
ordered_residues=ALREEEEGV observed_value=6.62
ordered_residues=VMIAMEGGHA observed_value=6.86
ordered_residues=ALGLVCVQA observed_value=6.48
ordered_residues=SLHCKPEEA observed_value=6.41
ordered_residues=IMPKTGFLII observed_value=5.85
ordered_residues=YVLVTCLGL observed_value=5.66
ordered_residues=FLWGPRALA observed_value=6.92
ordered_residues=YVIKVSARV observed_value=6.45
